# assayedTarget: Porcine Ventricle myofibrils (left ventricle of Yucatan minipigs) (Sus scrofa)
# Construct: Myofibrils from porcine cardiac muscle was isolated from the left ventricle of Yucatan minipigs; tissue Exemplar Genetics; host or cells: left ventricle of Yucatan minipigs
# Sequence (P79293 whole entry): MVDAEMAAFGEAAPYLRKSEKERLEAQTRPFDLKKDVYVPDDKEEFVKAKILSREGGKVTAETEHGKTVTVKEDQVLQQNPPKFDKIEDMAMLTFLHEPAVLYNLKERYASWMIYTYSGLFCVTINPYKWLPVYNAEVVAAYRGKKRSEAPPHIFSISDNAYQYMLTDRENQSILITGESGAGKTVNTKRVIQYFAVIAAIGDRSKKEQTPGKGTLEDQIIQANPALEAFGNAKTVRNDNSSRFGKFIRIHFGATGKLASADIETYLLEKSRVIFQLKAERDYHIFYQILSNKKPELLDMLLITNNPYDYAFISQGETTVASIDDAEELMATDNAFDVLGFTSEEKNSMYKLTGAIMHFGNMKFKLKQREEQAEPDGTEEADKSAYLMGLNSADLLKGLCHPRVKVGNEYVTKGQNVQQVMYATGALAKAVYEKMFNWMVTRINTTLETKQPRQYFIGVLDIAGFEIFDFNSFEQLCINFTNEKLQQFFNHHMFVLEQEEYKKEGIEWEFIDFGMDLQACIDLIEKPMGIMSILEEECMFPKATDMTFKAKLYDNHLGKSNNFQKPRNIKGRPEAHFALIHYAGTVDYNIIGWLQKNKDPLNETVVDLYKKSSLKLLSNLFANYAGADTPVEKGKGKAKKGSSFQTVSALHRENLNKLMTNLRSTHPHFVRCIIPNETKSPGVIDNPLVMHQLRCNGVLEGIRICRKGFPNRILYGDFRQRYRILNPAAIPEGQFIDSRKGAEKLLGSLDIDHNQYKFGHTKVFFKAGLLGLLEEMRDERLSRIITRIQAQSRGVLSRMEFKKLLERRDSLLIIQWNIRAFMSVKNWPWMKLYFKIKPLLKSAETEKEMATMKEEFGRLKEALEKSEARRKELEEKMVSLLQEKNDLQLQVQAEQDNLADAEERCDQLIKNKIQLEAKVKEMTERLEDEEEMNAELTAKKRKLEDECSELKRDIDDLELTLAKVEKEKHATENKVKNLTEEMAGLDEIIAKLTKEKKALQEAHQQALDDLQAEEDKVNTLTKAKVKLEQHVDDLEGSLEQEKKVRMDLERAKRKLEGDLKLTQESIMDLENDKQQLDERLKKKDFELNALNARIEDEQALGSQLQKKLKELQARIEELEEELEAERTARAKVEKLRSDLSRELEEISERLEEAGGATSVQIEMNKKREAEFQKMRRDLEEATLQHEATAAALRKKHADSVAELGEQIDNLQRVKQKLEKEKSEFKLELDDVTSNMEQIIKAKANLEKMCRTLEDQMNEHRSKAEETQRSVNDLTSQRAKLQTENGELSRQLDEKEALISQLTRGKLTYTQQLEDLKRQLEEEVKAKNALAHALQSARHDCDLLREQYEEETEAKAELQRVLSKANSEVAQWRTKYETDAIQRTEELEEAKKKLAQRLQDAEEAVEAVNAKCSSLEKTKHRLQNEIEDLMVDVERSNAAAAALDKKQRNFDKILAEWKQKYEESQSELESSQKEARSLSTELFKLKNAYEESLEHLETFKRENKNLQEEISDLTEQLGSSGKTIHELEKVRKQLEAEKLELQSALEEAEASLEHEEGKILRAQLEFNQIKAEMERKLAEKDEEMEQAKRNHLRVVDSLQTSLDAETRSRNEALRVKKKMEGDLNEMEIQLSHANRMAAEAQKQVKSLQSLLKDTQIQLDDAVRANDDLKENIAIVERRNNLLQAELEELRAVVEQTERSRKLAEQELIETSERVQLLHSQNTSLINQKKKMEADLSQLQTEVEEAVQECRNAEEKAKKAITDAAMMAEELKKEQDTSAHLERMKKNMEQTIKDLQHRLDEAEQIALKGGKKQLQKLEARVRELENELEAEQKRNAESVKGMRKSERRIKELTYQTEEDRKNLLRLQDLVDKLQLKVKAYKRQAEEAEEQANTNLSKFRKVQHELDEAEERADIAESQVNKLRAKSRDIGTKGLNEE
# testSummary: Myofibril ATPase assay (PK/LDH NADH-coupled), ventricle myofibrils
# Format: biochemical
# experimentalParameters: Table 7
endpoint: Porcine Ventricle IC25 (µM)

[
  {
    "structureSmiles": "C[C@H](NC(=O)CN1Cc2c(Cl)cncc2NC1=O)c1ccc(F)cc1F",
    "value": 100
  },
  {
    "structureSmiles": "Cc1c(F)cnc2c1CN(CC(=O)N[C@@H](C)c1ccc(F)cc1F)C(=O)N2",
    "value": 100
  },
  {
    "structureSmiles": "C[C@@H](NC(=O)CN1Cc2c(C#N)cncc2NC1=O)c1ncc(F)cc1F",
    "value": 100
  }
]

[I] C[C@H](NC(=O)CN1Cc2c(F)cncc2NC1=O)c1ccc(F)cc1F
[II] C[C@H](NC(=O)[C@@H](C)N1Cc2ncccc2NC1=O)c1ccc(F)cc1F
[III] CCOc1ccc2c(n1)CN(CC(=O)N[C@@H](C)c1ccc(F)cc1F)C(=O)N2
Please list the entries, largest Porcine Ventricle IC25 first. Returns: the labels arranged in the requested order.
II, I, III

---

# Test system: Porcine Atria myofibrils
# testSummary: Myofibril ATPase assay (PK/LDH NADH-coupled), atria myofibrils
# Type: biochemical
# experimentalParameters: Table 7
endpoint: Porcine Atria IC25 (nM)

[
  {
    "compound": "N#Cc1cc(F)c2c(c1)OC[C@H]2NC(=O)CN1Cc2c(ccnc2C(F)(F)F)NC1=O",
    "Porcine Atria IC25 (nM)": 70
  }
]

[I] COc1nccc2c1CN(CC(=O)N[C@@H](C)c1ccc(F)cc1F)C(=O)N2
[II] C[C@H](NC(=O)CN1Cc2c(ccnc2C2CC2)NC1=O)c1ccc(F)cc1F
[III] CC(NC(=O)CN1Cc2c(ccnc2C2CC2(F)F)NC1=O)c1ncc(F)cc1F (centres unmarked)
[IV] O=C(CN1C(=O)Nc2cccnc2C12CC2)N[C@@H]1COc2cc(F)cc(F)c21
Ranking field: Porcine Atria IC25; order: falling. Returns: the labels arranged in the requested order.
III, II, I, IV
(III: 100000 nM, II: 3120 nM, I: 680 nM, IV: 80 nM)

[P] C[C@@H](NC(=O)CN1C(=O)Nc2ccc(C#N)nc2C12CC2)c1ncc(C#N)cc1F
[Q] C[C@H](NC(=O)CN1C(=O)Nc2ccncc2[C@H]1C)c1ccc(F)cc1F
[R] COc1ccc2c(n1)CN([C@@H](C)C(=O)N[C@@H](C)c1ccc(F)cc1F)C(=O)N2
// ranking: key=Porcine Atria IC25, reverse=True Kindly provide the labels arranged according to the requested ordering.
R, Q, P
(R: 100000 nM, Q: 18870 nM, P: 2590 nM)

[I] C[C@H](NC(=O)CN1Cc2cc(F)cnc2NC1=O)c1ncc(F)cc1F
[II] C[C@H](NC(=O)CN1Cc2c(F)cncc2NC1=O)c1ccc(F)cc1F
Which item exceeds the other in Porcine Atria IC25, I or II ? Refer to your chosen item by its label in the answer.
I
(I: 100000 nM, II: 3140 nM)

[P] C[C@@H](NC(=O)CN1C(=O)Nc2cccnc2C12CC2)c1ccc(C#N)cn1
[Q] C[C@H](NC(=O)[C@H](Cc1ccccc1)N1Cc2nc(F)ccc2NC1=O)c1ccc(F)cc1F
Thinking about recorded Porcine Atria IC25 values, which is higher, P or Q ? Write the label of whichever entry you select.
Q
